# PROTOCOL: folding stability dG unfold (combined trypsin and chymotrypsin); higher = more stable
Given measured folding stability dG unfold, output Fulfilled if it is greater than or equal to 9 kJ/mol and Not fulfilled if not.

>>> group("SAGGSAGGGGVAEEVAALLKALGLKVKKIEVEVEEVPPDKKVARVKVTAELPTKKVTFELRVEVSAGGSAGG [r6_532_TrMRF]")
"Fulfilled"
>>> group("SAGGSDRVLVPAGPSDYDVLVVVTPGPGDLVGVDALVIHPDGTPLAVRGVLDPTTGGISPVAVDPLSAGGSA [r2_402_TrMRF]")
"Not fulfilled"
>>> group("SAGGAPLVPVSTETYTVKDSKGNEVTITIETLPDGSYRITITYPNGEVKEYEFPSKEEAEKLEITVNPSAGG [r13_109_JUSTAS]")
"Fulfilled"
>>> group("SAGGSAMDAEQIEEKIKEAMQDHGHEVEVEVQRDPNNTVVIQVESGPGMDKDRIQEALQEKFGVKISAGGSA [r15_807_TrROS]")
"Not fulfilled"
>>> group("SAGGSAGGSATVIIMVDPDDIEEALKEAPPNSKVMIHNPDNGYMFEITPNKLEIVEPIPPGDSAGGSAGGSA [r18_246_TrROS]")
"Not fulfilled"
>>> group("SAGGEPVKFIPPGWKITLTTPDGRPLTFTLPANATPEDFKSLELPGDHELEFVEFLPDGTILVRSPKSAGGS [r16_103_TrMRF]")
"Not fulfilled"

[Q] Textbook exercise: given the entry SAGGSAGGSAGGKPKLIVRVKIKNENGEEIEIEIEVETLDEAKEAAKKLGFEIVEVEVLSAGGSAGGSAGGS [r10_882_TrROS_Hall] , state whether its folding stability dG unfold is greater than or equal to 9 kJ/mol.
[A] Fulfilled

[Q] Textbook exercise: given the entry SAGGMTLTLVLEANPPEAVEVAVARLLRELGFPDELKIEIDPVGDDKGRIIYPVTIEVNVPELAEKASAGGS [r8_85_TrMRF] , state whether its folding stability dG unfold is greater than or equal to 9 kJ/mol.
[A] Fulfilled

[Q] Textbook exercise: given the entry SAGGSAGGVKIEVETRTETLPDGSTRTVMRVKIELPAPPPPPPPPTRTVTETTEDGETRTTTVRSAGGSAGG [r6_778_TrROS_Hall] , state whether its folding stability dG unfold is greater than or equal to 9 kJ/mol.
[A] Not fulfilled

[Q] Textbook exercise: given the entry SAGGKITAFVLVELPDGSVVERTYEFERLDDLLAFLEADPGPKLADLEIIPPEGSDDIIIPLVARVEPSAGG [r13_796_TrMRF] , state whether its folding stability dG unfold is greater than or equal to 9 kJ/mol.
[A] Not fulfilled

[Q] Textbook exercise: given the entry SAGGSAGGSAMTPEELLKAAEELAKKLNLKVEIEVKKNENGELTITVKVYKNGKLVKEFEIKSAGGSAGGSA [r18_369_TrROS_Hall] , state whether its folding stability dG unfold is greater than or equal to 9 kJ/mol.
[A] Fulfilled

###

# PROTOCOL: folding stability dG unfold from chymotrypsin proteolysis; higher = more stable
Listed here are sequences together with their documented folding stability dG unfold.
// units = kcal/mol; emit number, no label

>>> recorded_result("SAGGSAGGSAGGSPLLDFPEPVTTLEETTVTVYFDTNDFTVTLNVTTEVTGDVKRPTVVGSAGGSAGGSAGG [r7_735_JUSTAS]")
0.464
>>> recorded_result("SAGGSAGGSAGIVIKAKSPDEAVEALKKLFEKTGKADINIKPVKVLPDGNVLVEAGIDNKSAGGSAGGSAGG [r17_430_TrMRF]")
-1.43
>>> recorded_result("SAGGSAGGSAGGNWVTIWIPFKMTHYRPDPDGKMYPHKHEMPRPITIPPGQATEDALDKISAGGSAGGSAGG [r7_777_TrROS]")
0.762
>>> recorded_result("SAGGSPMRIRDVEIEEFDPDAGRIEIRFPSNGNTIKIPIPPGHKSLKIKIRMKNGEPFEQTITIPPSAGGSA [r2_132_TrROS]")
1.08
>>> recorded_result("EKALEAARELARKLAEELGVEVEVRVKKVSVLNENGELIAEVEVEITVRPLPPPVVEEEEVEEEEVEFEEES [r1_318_TrROS_Hall]")
2.18
>>> recorded_result("SAGGKTVEVEFEAPESLSPEEIAAAILAAAPPGYFVKVEEVEVRDRPDGEKVILYKATFYDPDTGDFDSAGG [r13_12_TrMRF]")
2.8

Note: attention shifts to another entry.
[Q] Which folding stability dG unfold value is on record for SAGGDLKIEIEPYRMGDYPMYEVKIEDPDGKDITLWMNSNNGQMMVFYPNGKPRRVDSAEDVLEALKSAGGS [r8_168_TrROS] ?
[A] 0.185

###

Listed here are sequences together with their documented folding stability dG unfold.
# PROTOCOL: folding stability dG unfold (combined trypsin and chymotrypsin); higher = more stable
// units = kcal/mol; emit number, no label

// below: answered sequences
>>> recorded_result("SAGGSAGGSAEVEIKVRPDDPIPPNLPIVLPDGKERDARVEAVLDPEDGTPVFKVYFDPRSDSAGGSAGGSA [r18_476_TrMRF]")
0.0528
>>> recorded_result("SAGGSAGGSAGGMPVLVNIELPIPGTNETLTLEVEAEGPGGEEVEKEAQETAEKVLEESSAGGSAGGSAGGS [r10_863_JUSTAS]")
1.72
>>> recorded_result("SAGGSKKVILIAKIPNEDKYLVLIASDSPELVKEAAKKAKKPGFYVLGEMTVEEAVKKLGLPPELFKSAGGS [r16_438_TrMRF]")
2.23
>>> recorded_result("SAGGSAGGSAEYRVVVVPPVPTVLIFVKPDRVYVVDLDPATGRATIRPVNVPPNVLPESLLTSAGGSAGGSA [r18_59_TrMRF]")
1.52
>>> recorded_result("SAGGSAGGDIKIEDIEYEQNPGGWQKVEVRLPGNGRPIEVPVPPGMPYEQAKDWAKDWAEELLKSAGGSAGG [r6_628_TrROS]")
0.511

[Q] Which folding stability dG unfold value is on record for SAGDLAEYIAETLQDHFPNMEVEVEIDGVEDGYIVIDITIYFRDMKDNENKPRWVPWEIVIPPGEPLPSAGG [r19_8_TrROS] ?
[A] 3.38

[Q] Which folding stability dG unfold value is on record for SAGGMKPGQPWHEIEVQREIDLPPGQISAEEIADLIAELFPGFRVEDFRIEFTGKKWRIDVTIYIPYSAGGS [r8_202_TrROS] ?
[A] 3.14

[Q] Which folding stability dG unfold value is on record for SAGGSAGGSIKIPPGQMIHIRYEHGGKKREYSFTIDPNDGKIDEIIPPDNLPGYKIEEIHIVPSAGGSAGGS [r12_6_TrROS] ?
[A] 0.307

[Q] Which folding stability dG unfold value is on record for SAGMVVTERTEPATGRPYTVTTEEDGSVTGSYPATGDTRSTTLNDRTTFSLPTTSPEVAAAQVEAALAASAG [r14_561_JUSTAS] ?
[A] -0.137

[Q] Which folding stability dG unfold value is on record for SAPIRPGQDLKIEPEIRRYPNGSMSYTYRLEFPNGPTVHVRHTMQRDPEHGKPRHKWDIHLSPKALEAFSAG [r14_842_TrROS] ?
[A] 1.41

[Q] Which folding stability dG unfold value is on record for SAGMEEEEVVLKIRVKDPETGEEKTFEVKLKDIEKVEVDEDGNIRIYLKEDGKEITIPADKITEVELLSAGG [r19_416_TrROS_Hall] ?
[A] 3.71

###

Listed here are sequences together with their documented folding stability dG unfold.
# PROTOCOL: folding stability dG unfold from trypsin proteolysis; higher = more stable
// units = kcal/mol; emit number, no label

// below: answered sequences
>>> recorded_result("SAGGPNFTIKIEIEEIPNGVRVHKMTMELPDGHAWLMVMLYSPDPGKMFMIMVPVDPNGGIEDINIMPSAGG [r13_323_TrROS]")
2.52
>>> recorded_result("SAGGSAGGSAGGKTYTAEELRSLPPGAKITLADGKVIEVSIEQLEKEIKPGDTVRIERVPSAGGSAGGSAGG [r7_643_TrROS_Hall]")
0.542
>>> recorded_result("SAGGSAGGSAGGPPVLAESTFSFPDGVTVRLAFLPDGKAIAELTPPDGSKIEVEFDVDASAGGSAGGSAGGS [r10_1184_TrMRF]")
-0.214

Note: attention shifts to another entry.
[Q] Which folding stability dG unfold value is on record for SAGGSAGGSAGGPEVTITLPPPEKVKVEIVEIEVEGGKVRIRVRNENGEELTFTVPLEDLSAGGSAGGSAGG [r7_829_TrROS_Hall] ?
[A] 0.667

###

# PROTOCOL: folding stability dG unfold (combined trypsin and chymotrypsin); higher = more stable
Listed here are sequences together with their documented folding stability dG unfold.
// units = kcal/mol; emit number, no label

// below: answered sequences
>>> recorded_result("SAGGSAGGGKSFSIPVDDAVILDYDPVTKRLTILLPGPGVELVLPLDKVKRIEIDPETGTIHVESAGGSAGG [r6_313_TrMRF]")
1.64
>>> recorded_result("SAGGSAGGAEVVKVDPKPAGVTTVLERYPDGTLRLLKETEENGKLTVSEVETIPVPDISKPPLLSAGGSAGG [r6_836_JUSTAS]")
0.0779
>>> recorded_result("SAGGSAKKKKKKKVKKVITIPVGGYKIEITYNKKTKKITVKVYKKNKNGKLLSEEEVKKLVKELLSSAGGSA [r15_735_TrROS_Hall]")
2.58
>>> recorded_result("SAGGSAGGSAGGGSMKEKKLTVGDKEIIVTYNPETGTATVKSPENSVSVFPLEELKKLLSAGGSAGGSAGGS [r10_1140_JUSTAS]")
0.318
>>> recorded_result("SSPIMIKMKDPDDREKIEKAVEEINDETGMSIRPESVDPNGKYTFMINMPPEHQKKILKALREAGNIEIVSA [r9_472_TrROS]")
0.874
>>> recorded_result("SAGGKARITRIEAEPDPLRVEVEVELPDGRKVRAVAVVPPGEGGVARVRTAVDFGEGVVPAADIEIPPSAGG [r13_728_TrMRF]")
0.236
>>> recorded_result("SAGGSAEELAKELAEKEGVKEVKVTVIKNKNGKLVLKVENKETNKTYEIELPEGAEVVEEITLKVKSAGGSA [r2_74_TrROS_Hall]")
0.923
>>> recorded_result("SAGGKVTVENDTLTIPFPDGFTVEITLPPNDKTAVITLHTPPNNPLALAAAKAIADSLPDYKVEVRDESAGG [r13_34_TrMRF]")
0.704

[Q] Which folding stability dG unfold value is on record for SMPLTPAEVAEARARAAREAAEAAAGVPVTVRVTLSTPDRELTVTLPATESLAAVMKAHPDVTVEVEVEASA [r9_513_JUSTAS] ?
[A] 0.284

[Q] Which folding stability dG unfold value is on record for SAGGSAGGDAKTFEVEGMTVFVDPETGLAVAEFPDGYLALGRIEVFGPGVAKVDLEIFPLPPGLSAGGSAGG [r6_670_TrMRF] ?
[A] 1.61

[Q] Which folding stability dG unfold value is on record for SMPLTPEEVEEVVEAVAKELEEETGEEVKAEVFYDPETGRFYAVIELPDGRRVRIEIDPETGEVRVEVEASA [r9_9_TrMRF] ?
[A] 4.02

[Q] Which folding stability dG unfold value is on record for SAGGEVKPGDKVKVRLRLRVRLEDGEEVEVELEFVEVEVVPLSEEEKEKLEELKKKKPEVDPKNKELLSAGG [r13_330_TrROS_Hall] ?
[A] 1.81
